- Test system: PC9 triple-mutant cells (C797S/T790M/del19)
- EXPERIMENT: CellTiter-Glo cell viability assay, PC9 triple mutant
- Type: cell-based
- RUN CONDITIONS: Table 1c, EGFR–TKIs; 72 h; read-out: IC50, PC9 triple
pIC50: −log10 of the molar value.

- MOLECULE: "C=CC(=O)Nc1cc(Nc2nccc(-c3cn(C)c4ccccc34)n2)c(OC)cc1N(C)CCN(C)C [Osimertinib, osimertinib]"
  pIC50: 5.46

* * *

- System: MGH121-res2 cells (C797S/T790M/del19)
- EXPERIMENT: cells
- Assay type: cell-based
- RUN CONDITIONS: Homo sapiens, MGH121, 72 h, read-out: IC50, MGH121-res2
pIC50: −log10 of the molar value.

- COMPOUND: "COc1cc(N2CCC(N3CCN(C)CC3)CC2)ccc1Nc1ncc(Cl)c(Nc2ccccc2P(C)(C)=O)n1 [Brigatinib, brigatinib]"
  pIC50: 6.23

* * *

- System: Ba/F3 cells expressing EGFR-del19
- EXPERIMENT: CellTiter-Glo cell viability assay, Ba/F3 EGFR-del19
- Assay type: cell-based
- RUN CONDITIONS: Mus musculus, BaF3; Table 1a; 72 h; read-out: IC50, Ba/F3-EGFR-Del19
- Procedure: Three-day cell viability assays were carried out by plating 2,000, 1,500 and 2,000 cells per well of Ba/F3, PC9 or MGH121, respectively, into black transparent-bottom 96-well plates. On the same day for Ba/F3 cells and the following day for PC9 and MGH121 cells, the cells were treated with each TKI across a 10-dose range from 0.3 nmol l^−1 to 10 μmol l^−1. After 72 h of drug treatment, cell viability was measured using the CellTiter-Glo assay (Promega).
MEASURED PROPERTY: IC50 (nM)

- SUBSTANCE SMILES: "Cc1cc(C(=O)Nc2nc3cccc(Cl)c3n2[C@@H]2CCCCN(C(=O)/C=C/CN(C)C)C2)ccn1"
  TESTED SYSTEM: "Ba/F3 cells expressing EGFR-del19"
  MEASURED PROPERTY: "IC50"
  ASSAY RESULT: 2.9

* * *

- Test system: Ba/F3 cells expressing EGFR-C797S/T790M/del19
- EXPERIMENT: CellTiter-Glo cell viability assay, Ba/F3 EGFR-C797S/T790M/del19
- Format: cell-based
- RUN CONDITIONS: Mus musculus, BaF3, 72 h, Table 1a; 72 h; read-out: IC50, Ba/F3-EGFR-C797S/T790M/del19

- SUBSTANCE SMILES: "Cc1cc(C(=O)Nc2nc3cccc(Cl)c3n2[C@@H]2CCCCN(C(=O)/C=C/CN(C)C)C2)ccn1"
  TESTED SYSTEM: "Ba/F3 cells expressing EGFR-C797S/T790M/del19"
  SCALE UNIT: "nM"
  IC50: 1410

* * *

- System: Ba/F3 cells of EGFR-C797S/T790M/del19
- EXPERIMENT: Drug sensitivity screening at 100 nM, Ba/F3 EGFR-C797S/T790M/del19
- Assay type: cell-based
- RUN CONDITIONS: Mus musculus, BaF3, 72 h, 100 nM inhibitor, 72 h, DMSO = 100; mean of three independent experiments (Fig. 1a data)
MEASURED PROPERTY: viability at 0.1 µM (%)

- SUBSTANCE SMILES: "Cc1[nH]c(/C=C2\\C(=O)Nc3ccc(S(=O)(=O)Cc4c(Cl)cccc4Cl)cc32)c(C)c1C(=O)N1CCC[C@@H]1CN1CCCC1"
  ASSAY RESULT: 136
- SUBSTANCE SMILES: "COc1cc2nccc(Oc3ccc(NC(=O)C4(C(=O)Nc5ccc(F)cc5)CC4)cc3)c2cc1OC"
  ASSAY RESULT: 137
- SUBSTANCE SMILES: "CC(=O)O[C@H]1C(=O)[C@@]2(C)[C@H]([C@H](OC(=O)c3ccccc3)[C@]3(O)C[C@H](OC(=O)[C@H](O)[C@@H](NC(=O)c4ccccc4)c4ccccc4)C(C)=C1C3(C)C)[C@]1(OC(C)=O)CO[C@@H]1C[C@@H]2O"
  ASSAY RESULT: 95.1
- SUBSTANCE SMILES: "CO[C@H]1C[C@@H]2CC[C@@H](C)[C@@](O)(O2)C(=O)C(=O)N2CCCC[C@H]2C(=O)O[C@H]([C@H](C)C[C@@H]2CC[C@@H](OCCO)[C@H](OC)C2)CC(=O)[C@H](C)/C=C(\\C)[C@@H](O)[C@@H](OC)C(=O)[C@H](C)C[C@H](C)/C=C/C=C/C=C/1C"
  ASSAY RESULT: 28
- SUBSTANCE SMILES: "COc1cc(N2CCC(N)CC2)ccc1Nc1ncc(Cl)c(-c2c[nH]c3ccccc23)n1"
  ASSAY RESULT: 89.3
- SUBSTANCE SMILES: "Nc1ncnc2c1c(-c1cccc(OCc3ccccc3)c1)cn2[C@H]1C[C@@H](CN2CCC2)C1"
  ASSAY RESULT: 132
- SUBSTANCE SMILES: "CO[C@H]1C[C@@H]2CC[C@@H](C)[C@@](O)(O2)C(=O)C(=O)N2CCCC[C@H]2C(=O)O[C@H]([C@H](C)C[C@@H]2CC[C@@H](O)[C@H](OC)C2)CC(=O)[C@H](C)/C=C(\\C)[C@@H](O)[C@@H](OC)C(=O)[C@H](C)C[C@H](C)/C=C/C=C/C=C/1C"
  ASSAY RESULT: 27.6
- SUBSTANCE SMILES: "COc1cc(N2CCC(N3CCN(C)CC3)CC2)ccc1Nc1ncnc(Nc2ccccc2S(=O)(=O)C(C)C)n1"
  ASSAY RESULT: 126
- SUBSTANCE SMILES: "COc1cc2c(Nc3ccc(Br)cc3F)ncnc2cc1OCC1CCN(C)CC1"
  ASSAY RESULT: 130
- SUBSTANCE SMILES: "COc1cc2c(Oc3ccc(NC(=O)C4(C(=O)Nc5ccc(F)cc5)CC4)cc3F)ccnc2cc1OCCCN1CCOCC1"
  ASSAY RESULT: 135
- SUBSTANCE SMILES: "COc1cc(N2CCC(N3CCN(C)CC3)CC2)ccc1Nc1ncc(Cl)c(Nc2ccccc2P(C)(C)=O)n1"
  ASSAY RESULT: 59.2
